Below, each entry is listed alongside its reported MC3R cAMP (EC50).
# EXPERIMENTAL TARGET: human MC3R (human, UniProt P41968 1-323)
# Sequence (P41968 whole entry): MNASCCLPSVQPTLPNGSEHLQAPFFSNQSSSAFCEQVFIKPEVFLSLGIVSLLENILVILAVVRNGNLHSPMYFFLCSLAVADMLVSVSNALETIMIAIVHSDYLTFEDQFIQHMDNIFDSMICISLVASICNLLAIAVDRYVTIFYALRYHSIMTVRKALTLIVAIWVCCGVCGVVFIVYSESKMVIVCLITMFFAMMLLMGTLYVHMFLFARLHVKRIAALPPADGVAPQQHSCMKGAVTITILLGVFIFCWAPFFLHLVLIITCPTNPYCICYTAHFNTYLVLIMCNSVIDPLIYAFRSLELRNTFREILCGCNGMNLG
# ASSAY PROCEDURE: cell-based or functional assay
Non-standard residues stand in square brackets, D forms with d. Phe(4-I) = N[C@@H](Cc1ccc(I)cc1)C(=O)O; Nle = CCCC[C@H](N)C(=O)O; Aib = CC(C)(N)C(=O)O

BINDER | MC3R cAMP (EC50)
Ac-[Nle][dA]H[Phe(4-I)]R[dF]DRFG-OH (SMILES CCCC[C@H](NC(C)=O)C(=O)N[C@H](C)C(=O)N[C@@H](Cc1c[nH]cn1)C(=O)N[C@@H](Cc1ccc(I)cc1)C(=O)N[C@@H](CCCNC(=N)N)C(=O)N[C@H](Cc1ccccc1)C(=O)N[C@@H](CC(=O)O)C(=O)N[C@@H](CCCNC(=N)N)C(=O)N[C@@H](Cc1ccccc1)C(=O)NCC(=O)O) [CTX-1503] | 124 nM
YVXAHFRWDRFG (Nle at 3; D-Ala at 4; Phe(4-Cl) at 6; D-Trp at 8) [CTX-2121] | 2.5 nM
Ac-[Nle][Aib]H[Phe(4-I)]R[dW]G-NH2 (SMILES CCCC[C@H](NC(C)=O)C(=O)NC(C)(C)C(=O)N[C@@H](Cc1c[nH]cn1)C(=O)N[C@@H](Cc1ccc(I)cc1)C(=O)N[C@@H](CCCNC(=N)N)C(=O)N[C@H](Cc1c[nH]c2ccccc12)C(=O)NCC(N)=O) [CTX-1545] | 51.6 nM
